ASSAY_NOTES: logP by HPLC on reversed-phase columns (C 18), EEC directive 79/831 Annex V.A8
Format: physicochemical
ASSAY_CONTEXT: LC-MS, neutral range, pH 7.8, 0.001 molar aqueous ammonium bicarbonate and acetonitrile
Reported log P (***) is given for each of the following compounds.

{"COMPOUND": "FC(F)(F)c1ccccc1-c1csc(N=C2CCCCN2)n1", "log P (***)": 3.25}
{"COMPOUND": "Clc1cc(Cl)cc(-c2csc(N=C3CCCCN3)n2)c1", "log P (***)": 4.21}
{"COMPOUND": "Fc1cc(F)c(Oc2ccccc2-c2csc(N=C3CCCCN3)n2)c(F)c1", "log P (***)": 3.96}
{"COMPOUND": "Fc1cccc(F)c1Oc1ccccc1-c1csc(N=C2CCCCN2)n1", "log P (***)": 3.78}
{"COMPOUND": "Brc1cccc(Oc2ccccc2-c2csc(N=C3CCCCN3)n2)c1", "log P (***)": 4.71}
{"COMPOUND": "Cc1cccc(-c2csc(N=C3CCCCN3)n2)n1", "log P (***)": 2.13}
{"COMPOUND": "c1ccc(Cc2ccc(-c3csc(N=C4CCCCN4)n3)cc2)cc1", "log P (***)": 4.28}
{"COMPOUND": "Fc1c(-c2csc(N=C3CCCCN3)n2)cccc1C(F)(F)F", "log P (***)": 3.78}
{"COMPOUND": "CC(c1ccccc1)c1csc(N=C2CCCCN2)n1 (stereo not shown)", "log P (***)": 3.27}
